Molecular target: D(1A) dopamine receptor (Homo sapiens)
Assay: Antagonist of Human D 1 Dopamine Receptor: qHTS; also: % is scaled to controls: 0 for no effect and ±100 for the full control effect
Settings: HEK293 TREx D1 cells, calcium flux, dopamine EC80; at 10 µM
The campaign covered roughly 360,000 compounds. About 11,000 (3.1%) were called active. Rule as the data show it: active = activity change below about -30%; inactive = the rest. This excerpt belongs to a sample that is enriched for actives.
Output constraint: value belongs to 1.0 (active), 0.0 (inactive)

molecule	label_class
N=c1n(CCc2ccccc2)c2ccccc2n1Cc1ccccc1F	1.0
COc1ccc(-n2nnnc2SCC(=O)c2ccc(OC)c(OC)c2)cc1	0.0
O=C(NCc1ccccc1)c1ccc(CNc2c(N3CCCC3)c(=O)c2=O)cc1	0.0
CC(Nc1nc(N2CCN(CCO)CC2)nc2ccccc12)c1ccccc1 (stereo not drawn)	0.0
Cc1ccc(-n2nc(C)c3c(C)cc(=O)n(CC(=O)Nc4ccc(C(C)C)cc4)c32)cc1	0.0

Exercise: Tell me the recorded outcome of this test for `CC(=O)N1CCCc2cc(S(=O)(=O)Nc3ccc(Cl)cc3F)ccc21` .
Key: 0.0

Exercise: Now this one: CCC1(C)Cc2c(sc3[nH]c(=S)n(Cc4ccccc4)c(=O)c23)CO1 (stereo not drawn)
Key: 0.0

Exercise: Now this one: `O=C(NCc1ccc(F)cc1)c1ccc(Cn2c(SCc3ccc(F)cc3)nc3cccnc32)cc1`
Key: 0.0
